System: SF-539 CNS
Assay: NCI tumour cell line growth inhibition, 48 h
TGI reference

[
  {
    "compound": "CC(=O)OCC1OC(n2c(=O)n(-c3ccccc3)c(=O)c3ccccc32)C(OC(C)=O)C(OC(C)=O)C1OC(C)=O (stereo not drawn)",
    "TGI": "> 100 µM"
  },
  {
    "compound": "COC(=O)C1=C(O)C(O)=C(C(=O)OC)C1",
    "TGI": "> 100 µM"
  },
  {
    "compound": "C[Si](C)(C)OC1c2[nH]c3ccccc3c2CN2C(=O)CCC12 (stereo not drawn)",
    "TGI": "> 100 µM"
  }
]

====

Tested on: SNB-75 CNS
Test: NCI tumour cell line growth inhibition, 48 h

[
  {
    "compound": "O=C(O)C1CC(c2ccccc2)=NN1c1ccccc1 (stereo unspecified)",
    "TGI": "> 100 µM"
  },
  {
    "compound": "CCOC(=O)c1ccc(C(=O)/C(C#N)=C2\\CCCN2)[nH]1",
    "TGI": "> 100 µM"
  },
  {
    "compound": "CCC1(N=[N+]=[N-])C(=O)Nc2cc(C)ccc2C1=O (stereo unspecified)",
    "TGI": "> 100 µM"
  },
  {
    "compound": "COC(=N)C12C(N)=NC(OC)(OC)C1(C#N)C21C(=O)N(c2ccccc2)N=C1C (stereo unspecified)",
    "TGI": "> 100 µM"
  },
  {
    "compound": "CC(=O)CCC[C@@H](C)[C@@H]1O[C@H]([C@@]2(C)CCC(=O)O2)C[C@H]2C(CSc3ccccc3)C(=O)O[C@@H]12 (stereo partly specified)",
    "TGI": "> 59.4 µM"
  },
  {
    "compound": "CCOC(=O)C(=O)Nc1c(N(CC)CC)n2ccccc2nc1=O",
    "TGI": "> 100 µM"
  }
]

====

TGI reference
Tested on: SK-MEL-5 melanoma
Assay: NCI tumour cell line growth inhibition, 48 h
property-measured: TGI

[
  {
    "molecule": "CC1(C)OCC(C2OC(N3O[C@H](CI)C[C@@H]3c3ccccc3)C3OC(C)(C)OC23)O1 (stereo partly drawn)",
    "result": "> 100 µM"
  },
  {
    "molecule": "S=C(Nc1ccc(Cl)cc1)Nc1ccc(-c2nc3ccccc3[nH]2)cc1",
    "result": "23.2 µM"
  },
  {
    "molecule": "N.N.NC(CS)C(=O)[O-].NC(CS)C(=O)[O-].[Pt+4] (stereo not drawn)",
    "result": "> 50 µM"
  }
]

====

Tested on: CCRF-CEM leukemia
Experiment: NCI tumour cell line growth inhibition, 48 h
TGI reference
property-measured: TGI

[
  {
    "compound": "COC(=O)C1(O)c2ccccc2N=C2C(=O)c3ccccc3N21 (stereo not given)",
    "result": "> 100 µM"
  },
  {
    "compound": "C=C(CN1CCc2ccccc2C1)c1ccc(C(=O)Nc2ccc(N)cc2)cc1",
    "result": "> 100 µM"
  },
  {
    "compound": "CC(C)(C)[C@H]1CO[C@]2(C)[C@@H]3C[C@@H]3C(=O)N12",
    "result": "> 100 µM"
  },
  {
    "compound": "COC(=O)CC1C(=O)OCc2c1cc1n(c2=O)Cc2c-1nc1ccccc1c2OC (stereo not given)",
    "result": "> 100 µM"
  },
  {
    "compound": "Cc1cc(C)nc(Nc2nc3ccc([N+](=O)[O-])cc3[nH]2)n1",
    "result": "> 100 µM"
  },
  {
    "compound": "COc1ccc(C2C(Cl)C(=O)N2NC(=O)Cc2ccccc2)cc1 (stereo not given)",
    "result": "> 100 µM"
  },
  {
    "compound": "CNC(=O)c1n[nH][nH]c1=O",
    "result": "> 100 µM"
  },
  {
    "compound": "Cc1cc2oc(=O)[nH]c(=S)c2c(C)c1C",
    "result": "> 100 µM"
  },
  {
    "compound": "CC(C)CCC[C@@H](C)C1CCC2[C@@H]3CCC4CC(CCC=C(c5cc(Cl)c(OC(=O)c6ccccc6)c(C(=O)O)c5)c5cc(Cl)c(OC(=O)c6ccccc6)c(C(=O)O)c5)CC[C@]4(C)C3CC[C@@]21C (stereo not given in full)",
    "result": "> 100 µM"
  },
  {
    "compound": "O=C(Nc1ccc(Cl)cc1)c1cc2ccccc2cc1O",
    "result": "> 100 µM"
  },
  {
    "compound": "COC(=O)C(Nc1ccc(OC)cc1)c1ccccc1 (stereo not given)",
    "result": "> 100 µM"
  },
  {
    "compound": "O=C1/C(=C\\c2cccc(Oc3ccccc3)c2)SC(c2ccccc2)N1c1ccc(Cl)cc1 (stereo not given)",
    "result": "> 63.6 µM"
  },
  {
    "compound": "C[C@H]1CCC/C=C/[C@@H]2C[C@H](O)C[C@H]2[C@H](O)[C@@H](S(=O)CCN(C)C)CC(=O)O1 (stereo not given in full)",
    "result": "> 100 µM"
  },
  {
    "compound": "C=C1C(=O)OC2CC3(CO3)C3C(O)C(O)CC3(C)CC12 (stereo not given)",
    "result": "45.9 µM"
  },
  {
    "compound": "CC(=O)c1ccc2c(c1)oc(=O)n2CCN1CCCCC1",
    "result": "> 100 µM"
  }
]
